measured on: UniProt:P78540
Sequence (P78540 23-354): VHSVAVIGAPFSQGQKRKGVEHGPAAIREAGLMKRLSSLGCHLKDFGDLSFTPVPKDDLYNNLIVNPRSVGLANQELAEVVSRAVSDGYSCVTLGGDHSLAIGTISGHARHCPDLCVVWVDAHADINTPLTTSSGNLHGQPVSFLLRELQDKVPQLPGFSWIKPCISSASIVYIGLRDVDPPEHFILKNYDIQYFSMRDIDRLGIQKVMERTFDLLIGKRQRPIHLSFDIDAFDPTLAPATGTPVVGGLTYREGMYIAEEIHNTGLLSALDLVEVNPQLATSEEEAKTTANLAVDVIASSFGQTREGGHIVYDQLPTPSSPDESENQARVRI
assay name: Inhibition of arginase II, spectrophotometric urea assay at 530 nm
Format: biochemical
particulars: Formula II compounds, Table 2-A; read-out: Potency (ARG)
pIC50: −log10 of the molar value. Counter-ions that a name gives are not always drawn.
recorded endpoint: pIC50

[[record]]
compound = "NC(CCCCB(O)O)(C(=O)O)C1CCN(c2ccc(C(F)(F)F)cn2)CC1 (stereo not drawn) [1-A, hydrochloride]"
measured_on = "UniProt:P78540"
recorded_endpoint = "pIC50"
test_result = "5.70 to 6.00"

[[record]]
compound = "NC(CCCCB(O)O)(C(=O)O)[C@@H]1CCN(Cc2ccccc2)C1 (stereo partly drawn) [Example 67-A, dihydrochloride]"
measured_on = "UniProt:P78540"
recorded_endpoint = "pIC50"
test_result = "6.00 to 6.60"


Below are 7 compounds. Give each one its pIC50.
1. COc1cccc(-c2ccccc2CN2CCC(C(N)(CCCCB(O)O)C(=O)O)CC2)c1 (stereo not drawn) [Example 58-A, dihydrochloride]
2. N#Cc1cccc(CN2CCC(C(N)(CCCCB(O)O)C(=O)O)CC2)c1 (stereo not drawn) [Example 106-A, dihydrochloride]
3. NC(CCCCB(O)O)(C(=O)O)C1CCN(Cc2ccc3c(c2)OCO3)CC1 (stereo not drawn) [Example 90-A, dihydrochloride]
4. NC(CCCCB(O)O)(C(=O)O)C1CCN(Cc2ccc(C(F)(F)F)cc2)CC1 (stereo not drawn)
5. NC(CCCCB(O)O)(C(=O)O)C1CCCN(Cc2ccc(Cl)c(Cl)c2)CC1 (stereo not drawn) [Example 73-A, dihydrochloride]
6. NC(CCCCB(O)O)(C(=O)O)C1CCN(CCCc2ccc(C(F)(F)F)cc2)CC1 (stereo not drawn) [Example 63-A, dihydrochloride]
7. CCCN1CCC(C(N)(CCCCB(O)O)C(=O)O)CC1 (stereo not drawn) [Example 101-A, dihydrochloride]

Output:
1. 6.00 to 6.60
2. 6.00 to 6.60
3. 6.60 to 10.00
4. 6.00 to 6.60
5. 6.00 to 6.60
6. 6.60 to 10.00
7. 6.60 to 10.00

Below are 7 compounds. Give each one its pIC50.
1. NC(CCCCB(O)O)(C(=O)O)C1CCN(C(=O)Cc2ccc(Cl)cc2)CC1 (stereo not drawn) [29-A, hydrochloride]
2. CC(C)CCN1CCC(C(N)(CCCCB(O)O)C(=O)O)CC1 (stereo not drawn) [Example 92-A, dihydrochloride]
3. NC(CCCCB(O)O)(C(=O)O)C1CCN(CCCc2ccc(Cl)cc2Cl)CC1 (stereo not drawn) [Example 66-A, dihydrochloride]
4. NC(CCCCB(O)O)(C(=O)O)C1CCN(C(=S)Nc2ccc(Cl)cc2)CC1 (stereo not drawn) [34-A, hydrochloride]
5. NC(CCCCB(O)O)(C(=O)O)C1CCN(Cc2cc3c(cc2Cl)OCO3)CC1 (stereo not drawn) [Example 91-A, dihydrochloride]
6. NC(CCCCB(O)O)(C(=O)O)[C@H]1C[C@@H](NCc2ccc(Cl)cc2)C1 (stereo partly drawn) [Example 82-A, dihydrochloride]
7. NC(CCCCB(O)O)(C(=O)O)C1CCN(C(=O)NCCc2ccc(F)cc2)CC1 (stereo not drawn) [33-A, hydrochloride]

Output:
1: < 5.30; 2: 6.60 to 10.00; 3: 6.60 to 10.00; 4: 6.00 to 6.60; 5: 6.00 to 6.60; 6: 6.60 to 10.00; 7: 5.70 to 6.00

Below are 5 compounds. Give each one its pIC50.
1. N[C@@H]1CC[C@H]([C@](N)(CCCCB(O)O)C(=O)O)C1 [15-A, dihydrochloride]
2. NC(CCCCB(O)O)(C(=O)O)[C@H]1C[C@@H](NCc2cccc3cccnc23)C1 (stereo partly drawn) [Example 79-A, dihydrochloride]
3. NC(CCCCB(O)O)(C(=O)O)[C@H]1C[C@@H](NCc2ccc(OC(F)(F)F)cc2)C1 (stereo partly drawn) [Example 76-A, dihydrochloride]
4. N[C@@](CCCCB(O)O)(C(=O)O)[C@H]1CCN(c2ccc(Cl)cc2)C1 [12-A, hydrochloride]
5. CC(C)CN[C@H]1C[C@@H](C(N)(CCCCB(O)O)C(=O)O)C1 (stereo partly drawn) [Example 83-A, dihydrochloride]

Output:
["6.60 to 10.00", "6.60 to 10.00", "6.60 to 10.00", "5.30 to 5.70", "6.60 to 10.00"]
